- Assay target: Recombinant human CSF1R kinase (Homo sapiens (Human), UniProt P07333)
- Sequence (P07333 20-972): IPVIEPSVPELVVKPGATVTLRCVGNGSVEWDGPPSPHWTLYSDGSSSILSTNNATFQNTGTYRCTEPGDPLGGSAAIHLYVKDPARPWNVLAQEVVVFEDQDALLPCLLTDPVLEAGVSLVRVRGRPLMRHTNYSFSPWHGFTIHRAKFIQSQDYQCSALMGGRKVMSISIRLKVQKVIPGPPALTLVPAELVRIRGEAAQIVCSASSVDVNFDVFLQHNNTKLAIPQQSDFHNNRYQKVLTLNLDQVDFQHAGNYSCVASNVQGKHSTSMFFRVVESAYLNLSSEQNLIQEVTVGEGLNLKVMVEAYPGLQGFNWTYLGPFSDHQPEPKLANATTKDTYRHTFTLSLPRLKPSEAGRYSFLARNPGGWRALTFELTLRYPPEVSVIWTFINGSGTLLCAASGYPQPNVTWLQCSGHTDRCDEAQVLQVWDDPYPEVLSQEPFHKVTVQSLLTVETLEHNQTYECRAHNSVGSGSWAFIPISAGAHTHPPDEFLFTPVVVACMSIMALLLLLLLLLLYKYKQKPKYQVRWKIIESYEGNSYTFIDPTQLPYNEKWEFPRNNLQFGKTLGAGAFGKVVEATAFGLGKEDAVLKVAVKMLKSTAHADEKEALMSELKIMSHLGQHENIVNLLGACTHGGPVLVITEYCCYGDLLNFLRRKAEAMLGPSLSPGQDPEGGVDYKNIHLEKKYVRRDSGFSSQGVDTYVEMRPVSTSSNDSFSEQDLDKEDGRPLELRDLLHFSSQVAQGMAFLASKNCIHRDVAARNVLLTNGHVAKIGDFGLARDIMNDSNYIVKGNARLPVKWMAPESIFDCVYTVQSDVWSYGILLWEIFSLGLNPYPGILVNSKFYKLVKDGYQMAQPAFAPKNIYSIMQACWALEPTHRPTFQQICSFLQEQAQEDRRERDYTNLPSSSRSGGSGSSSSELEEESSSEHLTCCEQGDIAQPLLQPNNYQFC
- Test method notes: Measurement of CSF1R kinase activity at molecular level (Z-LYTE)
- Condition info: Z-LYTE Tyr 1 peptide
Recorded IC50 for the following molecules
Experimental endpoint: IC50

> print(dat)
                                smiles.code  recorded.result
1  COc1ccc([C@H]2COc3cc(Oc4ccc5nccc(=O)n5c4)cnc3O2)nc1            80 nM
2  Cc1cnc2ccc(Oc3cnc(OCc4ccc(C5CC5)cc4)c(OCF)c3)cn2c1=O            28 nM
3  COc1ccc(CCOc2ncc(Oc3ccc4ncc(C)c(=O)n4c3)cc2OC)cc1            33 nM
4  COc1cc(Oc2ccc3ncc(C)c(=O)n3c2)cnc1OCc1cccc(C(C)(C)C#N)c1            44 nM
